Each entry below carries its reported TGI.
# Test system: U251 CNS
# protocolNotes: NCI tumour cell line growth inhibition, 48 h

compound | studySystem | TGI
S=c1[nH]nc(CCCCCCCCc2n[nH]c(=S)o2)o1 | U251 CNS | > 100 µM
c1cc2c(cc1[C@@H]1OC[C@@H]3[C@H]1CO[C@H]3c1ccc3c(c1)OCO3)OCO2 | U251 CNS | > 100 µM
CC(C)(CN1CCCCC1)C(=O)CC(SCCS(=O)(=O)O)c1ccc(Cl)cc1 (configuration not stated) | U251 CNS | 22.3 µM
COc1ccc(-c2cc(-c3ccccc3)nc(NCCNc3ccnc4cc(Cl)ccc34)n2)cc1 | U251 CNS | 3.38 µM
C(=C\c1c2oc(-c3ccccc3)cc(-c3ccccc3)c-2c2ccccc12)/C=C1\c2ccccc2-c2c(-c3ccccc3)cc(-c3ccccc3)[o+]c21 | U251 CNS | > 100 µM
CCOc1ccccc1NC(=O)C1=C(C)NC(C)=C(C(=O)Nc2ccccc2OCC)C1c1ccc([N+](=O)[O-])cc1 | U251 CNS | > 100 µM
C=CCNC1=C2C[C@@H](C)C[C@@H](OC)[C@H](OC(=O)CCN(C)C)[C@H](C)/C=C(\C)[C@@H](OC(N)=O)[C@H](OC)/C=C\C=C(/C)C(=O)NC(=CC1=O)C2=O | U251 CNS | 21.1 µM
N#CC(NNC(=O)c1ccccc1O)c1c(O)ccc2ccccc12 (configuration not stated) | U251 CNS | 37.1 µM
C=CCN=C(N/N=C/c1ccc([N+](=O)[O-])o1)NS(=O)(=O)c1cc(C(=O)Nc2ccccc2)c(Cl)cc1SCC(N)=O | U251 CNS | 95.8 µM
Cc1ccc(C2=C(Cl)C(=O)C(c3ccc(C)cc3)=C(Cl)C2=O)cc1 | U251 CNS | > 100 µM
Cn1c(=O)c2c(nc(N/N=C3/SCC(=O)N3Cc3ccccc3)n2C)n(C)c1=O | U251 CNS | > 100 µM
COc1ccc(/C=N/Nc2nnc3c(n2)c2ccccc2c2nn(-c4ccccc4Cl)nc23)cc1 | U251 CNS | > 100 µM
COC(=O)[C@@H]1COC(=O)N1 | U251 CNS | > 100 µM
COC(=O)[C@H](Cc1cn(C)cn1)NC(=O)[C@@H](NC(=O)Nc1cc(C(F)(F)F)cc(C(F)(F)F)c1)C(C)C | U251 CNS | > 10 µM
C#Cc1cccc(NC(=O)C2CCCN(C(=O)CCl)C2)c1 (configuration not stated) | U251 CNS | > 82.5 µM
CC(=O)OCC1OC(n2c(=S)n(-c3ccccc3)c(=O)c3cc(Br)cc(Br)c32)C(OC(C)=O)C(OC(C)=O)C1OC(C)=O (configuration not stated) | U251 CNS | > 100 µM
CNCc1ccc(-c2[nH]c3cc(F)cc4c3c2CCNC4=O)cc1 | U251 CNS | 57.7 µM
